Provide the reported Tm of each item.
Experiment: melting temperature; fluorescence melt of hairpins on a sequencing array, two-state fit, raised by 9.35 °C to match UV melts
Details: sodium 0.088 M
Give bare numbers, in °C.

Illustrative cases are given below, each with its answer.
GATTTCGGAAACGGAATC ((((.((....)).)))) | 45
GCCATCGAAAGATTCGGC ((((((....)))..))) | 36.9
GATCGACAGGTCGATC ((((((....)))))) | 60.3
GCACTCTCGAAAGAGTGC (((..(((....)))))) | 65
GCGAGTACTCGC ((((....)))) | 56.6
GATCCCCTGTGGGATC ((((((....)))))) | 63

# batch size: 3; output Tm per entry
1. GGTTTCGAAAGAACACC ((((((....))).)))
2. GCTTAAGAAATTAAGC ((((((....))))))
3. GAGTGTGGAAACATGCTC (((..((....))..)))

Key:
1: 37.6; 2: 43.5; 3: 38.7

====

Experiment: folding enthalpy; higher = less favourable; fluorescence melt of hairpins on a sequencing array, two-state fit
Details: sodium 0.088 M
measured endpoint: folding enthalpy
I'd appreciate it if you wrote the number followed by its unit.

Here is how some sequences turned out for folding enthalpy.
GTCTCCCCGAAAGGGGAC (((..(((....)))))) | -7.01 kcal/mol
GTGGGACGAAAGTCGCAC (((.(((....))).))) | -38.6 kcal/mol
GATCAACGAAAGTTAATC (((.(((....))).))) | -11.7 kcal/mol
GTGTCTCGAAAGAGGCAC (((.(((....))).))) | -38.5 kcal/mol
GCCCCGCGAAAGCGATGC ((..(((....)))..)) | -11.7 kcal/mol

// each sequence listed below needs its folding enthalpy
1. GCGTAAGGAAACTTGTGC ((..(((....)))..))
2. GCTGCTGGAAACAGTGGC ((..(((....)))..))
3. GTCCGCCCGAAAGGGGAC (((..(((....))))))
4. GTCCCTCGAAAGAGTGAC (((.(((....))).)))
5. GTGTGCGAAAGCAACAC ((((((....))).)))
6. GGTAGACGAAAGTCAACC (((.(((....))).)))
7. GCATTGCGAAAGCACTGC (((.(((....))).)))

Key:
1. -10.8 kcal/mol
2. -40.2 kcal/mol
3. -18.7 kcal/mol
4. -31.9 kcal/mol
5. -30.1 kcal/mol
6. -26.3 kcal/mol
7. -45.1 kcal/mol

====

Assay: folding enthalpy; higher = less favourable; fluorescence melt of hairpins on a sequencing array, two-state fit
Settings: sodium 0.088 M
What folding enthalpy was measured for each of the following?
Give bare numbers, in kcal/mol.

GGGATCGGAAACGATTCC ((.((((....)))).)) | -40.7

State recorded folding enthalpy for all listed sequences.
1. GCGAACGAAAGTTTACGC ((((((....)))..)))
2. GCTACGCGAAAGCGGGGC ((..(((....)))..))
3. GCGTATGAACGC ((((....))))
4. GCACGGCGAAAGCAATGC (((..((....))..)))
5. GCTACAGGAAACTGTGGC ((.((((....)))).))
6. GAGGGGGCGAAAGCCCTC (((..(((....))))))

Key:
1. -21.2
2. -20.7
3. -18.9
4. -15.5
5. -39
6. -7.85

====

Assay: melting temperature; fluorescence melt of hairpins on a sequencing array, two-state fit, raised by 9.35 °C to match UV melts
Conditions: sodium 0.088 M
measured endpoint: Tm (°C)
One number for each entry, in °C.

GGTAAAGGAAACTTTACC (((((((....))))))) | 52.1
GATCGCCTTCGCGATC ((((((....)))))) | 68.4
GCGGTGCGAAAGCATTGC ((..(((....)))..)) | 59.2
GATTACGAAAGTACATC ((((((....))).))) | 31.1
CGACGCGGAAACGCATCG (((.(((....))).))) | 49.1
GCAGACGAAAGTCGCTGC ((((((....)))..))) | 57.6

Hi there! I need Tm for each item below, if you can.
1. GCTTCCCGAAAGGGAGC (((.(((....))))))
2. GTGACCGAAAGGTGCCAC ((((((....)))..)))
3. GAAGCCGAAAGGCTTTC ((((((....))).)))
4. GCCATCGAAAGATCCGGC ((((((....)))..)))
5. GATCTCTACAGAGATC ((((((....))))))
6. GGGTTTCGAAAGAACCC (((.(((....))))))

Key:
1: 57.1; 2: 30.2; 3: 54.2; 4: 33.2; 5: 55.8; 6: 51.2

====

Test: melting temperature; fluorescence melt of hairpins on a sequencing array, two-state fit, raised by 9.35 °C to match UV melts
Conditions: sodium 0.088 M
Param threshold (50 °C) applies to Tm; output True when value >= threshold, False when value < threshold.

GTCATCGAAAGATTGGAC ((((((....)))..))) | False
GTAAGCCCGAAAGGGTAC (((..(((....)))))) | False
GTGGCAGGAAACTGCTAC ((.((((....)))).)) | True
GCTCTGGGAAACTAGGGC ((.((.(....).)).)) | False
GCTAGGCGAAAGCCAAGC (((.(((....))).))) | True

Exercise: # bool: Tm of GCGACACTCGC ((((...)))) >= 50 °C
Key: True

Exercise: # bool: Tm of GAGACCGAAAGGTGTCTC ((((((....)))..))) >= 50 °C
Key: True

Exercise: Evaluate GTTGCCGAAAGGCTCAAC ((((((....)))..))) : Tm at minimum 50 °C?
Key: False

====

Record form. Attribute: Tm. Fill in for each entry.
Assay: melting temperature; fluorescence melt of hairpins on a sequencing array, two-state fit, raised by 9.35 °C to match UV melts
Conditions: sodium 0.088 M
Answers are plain numbers, in °C.

// below: answered sequences
GAGTGCGAAAGCAGCCTC ((((((....)))..))) | 34.5
GAGCTACCGAAAGGTCTC (((..(((....)))))) | 27.6
GCTATGGAAACATAGC ((((((....)))))) | 55.6
GTTCGTGGAAACGTGAAC ((((..(....)..)))) | 34.8

# map each sequence to its Tm
1. GCCACCGAAAGGTCTGGC ((((((....)))..)))
2. GGGTGCCCGAAAGGGCCC (((..(((....))))))

Key:
1. 47.4
2. 55.5

Look at each sequence and report its Tm.
1. GTGAGGCGAAAGCCACAC (((.(((....))).)))
2. CGGCGGCGGAAACGCCCG (((..(((....))))))
3. GCATCAGAAATGATGC ((((((....))))))
4. GCCGTTGGAAACGATGGC (((.(.(....).).)))

Key:
59.6
49.3
57.9
42.9

Here are 2 sequences. What values of Tm were reported for them?
1. GGAGTTGGAAACAACTTC (.(((((....))))).)
2. GCTCGGCGAAAGCCATGC ((..(((....)))..))

Key:
1: 47.5; 2: 49.8

====

Test: folding enthalpy; higher = less favourable; fluorescence melt of hairpins on a sequencing array, two-state fit
Conditions: sodium 0.088 M
Exercise: for every item that follows, state its recorded folding enthalpy.
One number for each entry, in kcal/mol.

GGTCACGAAAGTGGGACC ((((((....)))..))) | -23.4

Lab note: each sequence below needs its folding enthalpy filled in.
1. GTTCCCGAAAGGGGAAC ((((((....))).)))
2. GCGAGATGTCGC ((((....))))
3. GGTATGGGAAACCATACC (((((((....)))))))
4. ACTACGAAAGTAGT (((((....)))))
5. GAGTCTGGAAACAGACCC (.(((((....))))).)
6. GCTTGGGAAACCAAGC ((((((....))))))
7. GTCGCACGAAAGTGTGAC (((.(((....))).)))

Key:
-20.8
-19.1
-45.3
-18.7
-14.2
-35.7
-42.4

====

Would you mind telling me the reported Tm of each entry?
Assay: melting temperature; fluorescence melt of hairpins on a sequencing array, two-state fit, raised by 9.35 °C to match UV melts
Settings: sodium 0.088 M
Numbers only, in °C.

GATCTGTAGACAGATC ((((((....)))))) | 50.8

Hi team, please reply with Tm for each item in this list.
1. GATCTACTGATAGATC ((((((....))))))
2. GATCACAGGGTGATC ((((((...))))))
3. GATTCCGAAAGGAAATC ((((((....))).)))
4. GACCCTACGAAAGTAGTC (((..(((....))))))
5. GGACCCGAAAGGGGCTCC ((((((....)))..)))

Key:
1: 39.3; 2: 61.2; 3: 41.5; 4: 28; 5: 56.5

src = the array DNA melting data of Ke et al. (doi:10.1101/2024.01.08.574731)
